Taken from PubChem BioAssay (NCI).

test system: HT29 colon; assay: NCI tumour cell line growth inhibition, 48 h
MEASURED QUANTITY: TGI

Solved entries (count: 3):
{"MOLECULE": "O=C1CC[C@@H](S(=O)(=O)c2ccccc2)[C@@H](/C=C/c2ccccc2)O1", "TARGET UNDER TEST": "HT29 colon", "MEASURED QUANTITY": "TGI", "RECORDED RESULT": "> 100 µM"}
{"MOLECULE": "COC(=O)CCC12CCC(O1)c1ccccc12 (stereo unspecified)", "TARGET UNDER TEST": "HT29 colon", "MEASURED QUANTITY": "TGI", "RECORDED RESULT": "> 100 µM"}
{"MOLECULE": "C=C1C(=O)O[C@H]2[C@H]1CC/C(COC(=O)N1CCC[C@H]1C(=O)Nc1ccc(OC)c(C(N)=O)c1O)=C\\CC[C@@]1(C)O[C@@H]21", "TARGET UNDER TEST": "HT29 colon", "MEASURED QUANTITY": "TGI", "RECORDED RESULT": "11.1 µM"}

What does the data say about its TGI? Entry: COc1ccc2c3c1OC1c4[nH]c5ccccc5c4CC4(O)C(C2)N(C)CCC314 (stereo unspecified) 49.3 µM

Reported TGI for c1ccc(-c2nn(-c3ccccc3)[n+](-c3ccccc3)n2)cc1 : what is it? > 100 µM

# input molecule: CC1(C)Oc2ccc3c(=O)cc(-c4ccc(F)cc4)oc3c2C1C(=O)O (stereo unspecified) ; wanted: its TGI > 100 µM

---

tested on: HOP-62 NSCLC; assay: NCI tumour cell line growth inhibition, 48 h
MEASURED QUANTITY: TGI

Solved entries (count: 4):
{"COMPOUND": "COC(=O)c1c(C)cccc1CC1Cc2c(C)cccc2C1=O (stereo not given)", "TGI": "> 100 µM"}
{"COMPOUND": "COc1ccc2c(c1)OC(N(C(C)=O)C(C)=O)=C(C#N)C2c1ccc(F)cc1 (stereo not given)", "TGI": "> 100 µM"}
{"COMPOUND": "COc1ccc(-c2cncn2-c2ccc(OC)cc2)cc1", "TGI": "67.4 µM"}
{"COMPOUND": "CN1CN(c2ccccc2)C2(CCN(CCc3csc4ccccc34)CC2)C1=O", "TGI": "26.4 µM"}

Please turn your attention to the following entry.
Sample COc1cc(Nc2nc(N[C@H]3CCCC[C@@H]3N)nc3cc[nH]c(=O)c23)cc(OC)c1 — what was its TGI? 20.8 µM

---

tested on: HT29 colon; test: NCI tumour cell line growth inhibition, 48 h
MEASURED QUANTITY: TGI

{"COMPOUND": "CC12CCC(=O)C=C1CCC1C2C(O)CC2(C)C(c3csc(N)n3)CCC12 (stereo unspecified)", "TGI": "> 100 µM"}
{"COMPOUND": "Fc1ccc2[nH]c3c(NCCCN4CCOCC4)ncnc3c2c1", "TGI": "> 100 µM"}
{"COMPOUND": "CSC1=C(c2ccc(Cl)cc2)SC(N2CCCCC2)N1c1ccc([N+](=O)[O-])cc1 (stereo unspecified)", "TGI": "> 100 µM"}
{"COMPOUND": "COc1ccc(CC(C)N)cc1 (stereo unspecified)", "TGI": "> 100 µM"}

Record request: TGI value, item N#Cc1ccc(OCc2nc3cc(C(F)(F)F)ccc3nc2-c2ccccc2)cc1 > 100 µM

For O=S1C2=C(Cc3ccccc3)C(Cc3ccccc3)=C1CCc1cccc(c1)CC2 , what is its reported TGI? 26 µM

---

tested on: U251 CNS
Field 'call' accepts class 1 (active), class 0 (inactive)

# count of solved cases: 6
{"COMPOUND": "COc1cc(-c2cn(-c3ccc(Cl)cc3)c(C)c2C(=O)C(F)(F)F)cc(OC)c1OC", "LABEL": "class 0"}
{"COMPOUND": "CC1C(=O)C(C)C(c2ccccc2)N(N=O)C1c1ccccc1 (stereo not drawn)", "LABEL": "class 0"}
{"COMPOUND": "COC(=O)CNC(=O)[C@@H](OC)[C@@H]1Cc2cc3cc(OC4CC(OC5CC(O)C(O)C(C)O5)C(O)C(C)O4)c(C)c(O)c3c(O)c2C(=O)[C@H]1OC1CC(OC2CC(OC3CC(C)(O)C(O)C(C)O3)C(O)C(C)O2)C(O)C(C)O1 (stereo partly drawn)", "LABEL": "class 1"}
{"COMPOUND": "ClCc1c(Cl)c(Cl)c(Cl)c(CCl)c1Cl", "LABEL": "class 0"}
{"COMPOUND": "C#CC[C@@H]1C[C@]2(C)[C@H]3CC=C4[C@H]5CC(C)(C)CC[C@]5(C(=O)NCCCCN)CC[C@@]4(C)[C@]3(C)CC[C@H]2C(C)(C)[C@H]1OC(C)=O", "LABEL": "class 0"}
{"COMPOUND": "C=C1C(=O)O[C@H]2[C@H]1CC/C(COC(=O)N1CCC[C@H]1C(=O)Nc1ccc(OC)c(C(N)=O)c1O)=C\\CC[C@@]1(C)O[C@@H]21", "LABEL": "class 0"}

GET /call?item= CC(=O)[O-].CC(=O)[O-].[NH2-].[Pt+2].c1ccc2cnccc2c1 returns the recorded outcome of this test. class 0

Test call for this compound, please: CN(C)C(=S)N=Nc1c(O)[nH]c2ccccc12 class 1

---

Readings of TGI for the listed compounds
test system: CCRF-CEM leukemia; test: NCI tumour cell line growth inhibition, 48 h

The following compounds have reported results that may help.
{"COMPOUND": "Cn1nc(-c2ccccc2)c(C(=O)/C=C/c2ccccc2)c(N2CCOCC2)c1=O", "RECORDED RESULT": "57.2 µM"}
{"COMPOUND": "O=c1[nH]nc(Cc2ccccc2)n1Nc1ccccc1", "RECORDED RESULT": "> 100 µM"}
{"COMPOUND": "CC(CNC(Cc1ccccc1)c1ccccc1)NC(Cc1ccccc1)c1ccccc1 (stereo unspecified)", "RECORDED RESULT": "7.84 µM"}

# query: TGI of entry Cc1cn(Cc2ccccc2CCl)c(=O)[nH]c1=O > 100 µM

Report TGI for O=C(CC(C(=O)c1ccoc1)c1ccco1)c1ccco1 (stereo unspecified) please. > 100 µM

Quick one: TGI of O=C(CN1CCN(c2ccccc2)CC1)N1CCc2c([nH]c3ccccc23)C1c1cccnc1 (stereo unspecified) ? > 100 µM

What value of TGI has been recorded for this entry: C[C@@H]1CN(CC(=O)N2CC(C)(C)c3nc(CO)c(Cc4ccc(F)cc4)cc32)[C@@H](CN2CCOC[C@H]2C)CN1 > 100 µM

Report TGI for O=[N+]([O-])c1ccc2nc(/C=C(\O)c3ccc(F)cc3)c(/C=C(\O)c3ccc(F)cc3)nc2c1 please. 26.4 µM

Reported TGI, compound COc1cc(COC(=O)N2CCC2C(=O)O)c([N+](=O)[O-])cc1OC (stereo unspecified) : ____ > 100 µM

---

system: SW-620 colon; assay: NCI tumour cell line growth inhibition, 48 h; in the data active means GI50 below about 0.43 µM; inactive means the rest
Could you please pick one outcome from this set? active, inactive

Worked examples, 2 molecules total:
{"MOLECULE": "C#CC[C@@H]1C[C@]2(C)[C@H]3CC=C4[C@H]5CC(C)(C)CC[C@]5(C(=O)NCCCCN)CC[C@@]4(C)[C@]3(C)CC[C@H]2C(C)(C)[C@H]1OC(C)=O", "LABEL": "inactive"}
{"MOLECULE": "C=C1CC[C@@H]2[C@](C)(COC(C)=O)[C@H](OC(C)=O)CC[C@@]2(C)[C@@H]1CC(Nc1ccc(S(=O)(=O)Nc2nccc(C)n2)cc1)C1=CCOC1=O (some centres not stated)", "LABEL": "inactive"}

Hey, what did the test say about CC(C)(C)c1ccc(S(=O)(=O)N[C@H]2CC[C@H]3[C@@H]4CCc5cc(OS(=O)(=O)O)ccc5[C@H]4CC[C@]23C)cc1 ? inactive

Returns: the outcome recorded for O=C1/C(=C/c2ccc(O)cc2)COc2ccc(-c3ccccc3)cc21 in this assay. inactive

Recorded call for COc1cc(Nc2nc(N[C@H]3CCCC[C@@H]3N)nc3cc[nH]c(=O)c23)cc(OC)c1 ? inactive

How was CC1OC2CC(=O)OC2C2=C1C(=O)c1c(O)c3c(c(O)c1C2=O)C1CC(O)C3(O)C(C)O1 (configuration not stated) classified in this test? active

Just curious, what result did COc1ccc2c(c1)OC(N(C(C)=O)C(C)=O)=C(C#N)C2c1ccc(F)cc1 (configuration not stated) get here? inactive

---

test system: MCF7 breast; assay: NCI tumour cell line growth inhibition, 48 h
# key: entry, value: TGI
Numeric only. Scale: µM

{"SMILES NOTATION": "CC[C@@H](/C=C\\CCC1(C[C@H](O)CCC=C(C)C)OCCO1)O[Si](C(C)C)(C(C)C)C(C)C", "TARGET UNDER TEST": "MCF7 breast", "OUTPUT UNIT": "µM", "TGI": 32}
{"SMILES NOTATION": "C=C1C(=O)O[C@H]2[C@H]1CC/C(COC(=O)N1CCC[C@H]1C(=O)Nc1ccc(OC)c(C(N)=O)c1O)=C\\CC[C@@]1(C)O[C@@H]21", "TARGET UNDER TEST": "MCF7 breast", "OUTPUT UNIT": "µM", "TGI": 9.55}
{"SMILES NOTATION": "Cc1cc2c3ccccc3n(C)c2c2c1C(=O)C=CC2=O", "TARGET UNDER TEST": "MCF7 breast", "OUTPUT UNIT": "µM", "TGI": 17.5}

What measured TGI is associated with c1ccc(-c2nn(-c3ccccc3)[n+](-c3ccccc3)n2)cc1 on MCF7 breast? 25.9

Notebook: pull reported TGI for MCF7 breast, entry CC[C@H](CC#N)OC(=O)N[C@@H](C)c1cccc(NC(=O)Nc2ccc(-c3cnco3)c(OC)c2)c1 18.2

Any idea what TGI came out for O=C1C(Cl)=C(Nc2cccc(O)c2)C(=O)N1c1cc(Cl)c(Cl)cc1Cl on MCF7 breast? 54.7

Write down the reported TGI of c1cnc2[nH]cc(-c3csc(-c4cn(CCCCN5CCOCC5)c5ccccc45)n3)c2c1 , test system: MCF7 breast. 3.57

TGI of CCc1cc(O)c(Cl)c(C)c1Cl on MCF7 breast? 61.6
